Catalogue of Stability, Long-Term (−80 °C for 30 Days) readings, one per entry.
test: Stability in human plasma under various storage conditions (QC samples); format: in vitro ADME; settings: human plasma, nominal conc. 0.15 ng/mL; mean ± SD, n = 5; in % (unit assumed)
parameter_measured: Stability, Long-Term (−80 °C for 30 Days)

compound: CC(C)=CC(=O)O[C@H]1Cc2cc3ccc(=O)oc3cc2OC1(C)C
result: 105.00 ± 9.02
--
compound: CC1(C)Oc2cc3oc(=O)ccc3cc2C[C@@H]1O
result: 87.35 ± 9.60
--
compound: C/C=C(/C)C(=O)O[C@H]1Cc2cc3ccc(=O)oc3cc2OC1(C)C [DA, decursinol angelate]
result: 106.20 ± 9.09
--
compound: CC(C)(O[C@@H]1O[C@H](CO)[C@@H](O)[C@H](O)[C@H]1O)[C@H]1Cc2cc3ccc(=O)oc3cc2O1
result: 111.62 ± 8.13

* * *

assay: Stability in human plasma under various storage conditions (QC samples); assay type: in vitro ADME; details: human plasma, nominal conc. 0.15 ng/mL; measured vs initial value, mean ± SD, n = 5; in % (unit assumed)
Catalogue of Stability, Bench-Top (8 h at Room Temperature) readings, one per entry.
parameter_measured: Stability, Bench-Top (8 h at Room Temperature)

compound: CC1(C)Oc2cc3oc(=O)ccc3cc2C[C@@H]1O
measured_number: 89.75
--
compound: C/C=C(/C)C(=O)O[C@H]1Cc2cc3ccc(=O)oc3cc2OC1(C)C [DA, decursinol angelate]
measured_number: 108.58
--
compound: CC(C)(O[C@@H]1O[C@H](CO)[C@@H](O)[C@H](O)[C@H]1O)[C@H]1Cc2cc3ccc(=O)oc3cc2O1
measured_number: 101.43
--
compound: CC(C)=CC(=O)O[C@H]1Cc2cc3ccc(=O)oc3cc2OC1(C)C
measured_number: 101.91

* * *

assay: Pharmacokinetic study after oral administration of AGN root extract powder in healthy Korean subjects; type: in vivo, human; details: male; human plasma, single usual oral dose of 4.6 g AGN root extract powder; mean ± SE, n = 10
Catalogue of AUC(0-inf) readings, one per entry.

compound: C/C=C(/C)C(=O)O[C@H]1Cc2cc3ccc(=O)oc3cc2OC1(C)C [DA, decursinol angelate]
AUC(0-inf) / ng·h/mL: 19.6
--
compound: CC(C)=CC(=O)O[C@H]1Cc2cc3ccc(=O)oc3cc2OC1(C)C
AUC(0-inf) / ng·h/mL: 22.3
--
compound: CC(C)(O[C@@H]1O[C@H](CO)[C@@H](O)[C@H](O)[C@H]1O)[C@H]1Cc2cc3ccc(=O)oc3cc2O1
AUC(0-inf) / ng·h/mL: 3.11
--
compound: CC1(C)Oc2cc3oc(=O)ccc3cc2C[C@@H]1O
AUC(0-inf) / ng·h/mL: 2.43

* * *

Catalogue of Stability, Freeze-Thaw (3 Cycles) readings, one per entry.
assay: Stability in human plasma under various storage conditions (QC samples); assay type: in vitro ADME; conditions: human plasma, nominal conc. 40 ng/mL; −80 °C and room temperature; mean ± SD, n = 5; in % (unit assumed)

molecule: CC(C)(O[C@@H]1O[C@H](CO)[C@@H](O)[C@H](O)[C@H]1O)[C@H]1Cc2cc3ccc(=O)oc3cc2O1 [Nodakenin, nodakenin]
Stability, Freeze-Thaw (3 Cycles): 104.79

molecule: CC1(C)Oc2cc3oc(=O)ccc3cc2C[C@@H]1O [DOH, decursinol]
Stability, Freeze-Thaw (3 Cycles): 104.29

molecule: CC(C)=CC(=O)O[C@H]1Cc2cc3ccc(=O)oc3cc2OC1(C)C [D, decursin]
Stability, Freeze-Thaw (3 Cycles): 102.80

molecule: C/C=C(/C)C(=O)O[C@H]1Cc2cc3ccc(=O)oc3cc2OC1(C)C [DA, decursinol angelate]
Stability, Freeze-Thaw (3 Cycles): 100.75
